System: AT rich DNA
Test: Displacement of Ethidium bromide from AT3 (5'-ATATAT-3') hairpin DNA (unknown origin)/EtBr complex assessed as binding constant by crystal violet staining based analysis
Assay type: nucleic-acid assay
observed property: K

Below: 3 molecules and their reported K.
test smiles | K
Cc1cc(N(C)C)cc(C)c1C(=C1C=CC(=[N+](C)C)C=C1)c1ccc(N(C)C)cc1 | 0.21 10^5/M
CN(C)c1ccc(C(=C2C=CC(=[N+](C)C)C=C2)c2ccc(/C=C/c3cc4c(cc3/C=C/c3ccc(C(=C5C=CC(=[N+](C)C)C=C5)c5ccc(N(C)C)cc5)cc3)OCO4)cc2)cc1 | 5.79 10^5/M
CN(C)c1ccc(C(=C2C=CC(=[N+](C)C)C=C2)c2ccc(OCc3ccccc3COc3ccc(C(=C4C=CC(=[N+](C)C)C=C4)c4ccc(N(C)C)cc4)cc3)cc2)cc1 | 1.3 10^5/M

Now for another entry.
Entry CN(C)c1ccc(C(=C2C=CC(=[N+](C)C)C=C2)c2ccccc2-c2ccccc2-c2ccccc2C(=C2C=CC(=[N+](C)C)C=C2)c2ccc(N(C)C)cc2)cc1 needs its K filled in; supply it.
0.32 10^5/M
